Reported values of Kd for individual entries
- Target or system: T1, PUF4 RNA-binding domain (Saccharomyces cerevisiae, UniProt P25339 537-888)
- T1 sequence: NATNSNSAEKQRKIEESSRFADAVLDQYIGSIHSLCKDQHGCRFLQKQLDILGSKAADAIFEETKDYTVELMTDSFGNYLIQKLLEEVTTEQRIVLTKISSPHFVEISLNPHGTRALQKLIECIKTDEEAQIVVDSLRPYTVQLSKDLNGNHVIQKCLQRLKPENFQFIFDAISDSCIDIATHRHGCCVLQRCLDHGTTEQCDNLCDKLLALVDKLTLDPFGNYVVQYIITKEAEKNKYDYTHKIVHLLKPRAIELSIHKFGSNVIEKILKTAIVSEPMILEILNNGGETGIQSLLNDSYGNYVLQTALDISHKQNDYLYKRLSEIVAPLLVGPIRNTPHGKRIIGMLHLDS
- Experiment: Mg; RNA-MaP; 20 mM Na-HEPES pH 7.4, 30 mM KOAc, 0.75 mM MgCl2, 0.1% Tween-20, 5% glycerol, 0.1 mg/mL BSA, 2 mM DTT; 25 C; 0.0125-409.6 nM protein
- Experimental context: tags: N-His6-TEV cleaved; C-SNAP kept, Cy3B-labelled; label: tethered on chip by stalled RNA polymerase
Output should be the measured figure followed by the unit it is expressed in.

UCUCUUUGUAUUAUGGUCUCUU (ssRNA) [Ib_S1_P5E.1_K5.1_C5.1_H5.1_A5.1_F5.1_[T9G]_[A10G]_T5.1]: 7.8 nM
UCUCUUUGUACGGUCUCUCUU (ssRNA) [Ic_S1_P4E.1_K4.1_C4.1_H4.1_A4.1_[T5C]_[A6G]_[T7G]_F4.1_[A9C]_T4.1]: 1490 nM

Could you now look at the following binder, please?
Inquiry: Fill blank: measured Kd of the binder Id_i_S2_P3E.5_K3.1_C3.3_[T-3G]_[C-2T]_[T-1C]_H3.1_A3.1_F3.1_T3.2 (ssRNA) RNA: UUUGAUUAAUAUGAUAUCGUUCUUUCUGUCUGUAUAUAUAUUCUUUCUCGAUAUCAUAUUAAUCUUU is ____.
Reply text: 2.83 nM
